Target: native RSV F protein from the RSV A2 strain (Respiratory Syncytial Virus strain A2, UniProt P03420 26-574)
Experiment: cell-based or functional assay
quantityName: ED50, plaque reduction, RSV A2
Value and unit, in that order.

Looking up IgG form of 30D8 (antibody, V domains shown, also called IgG 30D8; 30D8 Mab) VH: EVQLLQSGAELKKPGASVKISCKTSGFTFSGHTIAWVRQAPGQGLEWMGWVSTNNGNTEYAQKIQGRVTMTMDTSTSTVYMELRSLTSDDTAVYFCAREWLVMGGFAFDHWGQGTLLTVSS VL: QSVLTQASSVSVAPGQTARITCGANNIGSQNVHWYQQKPGQAPVLVVYDDRDRPSGIPDRFSGSNSGNTATLTISRVEAGDEADYYCQVWDSSRDQAVIFGGGTKLTVLG , I see its ED50, plaque reduction, RSV A2 listed as 0.089 nM

Looking up IgG form of 104E5 (antibody, V domains shown) VH: QVQLEQSGAEVKKPGSSVKVSCKPSGGTFDTYTISWVRQAPGQRLEWLGRIIPSLGETNYAHKLQGRVTITADKATSVVYMDLSDLTSEDAAVYYCAFRITGPVDWVWDYGMDVWGQGTTVSVSS VL: DIQMTQSPSSLPASVGDRVTITCRASQNIKTYLNWYQQKPGRAPKLLISAVSNLQSGVPSRFSGTGSGTDFTLTISSLQPEDFATYYCQQSFSIPLTFGGGAKVEIKR , I see its ED50, plaque reduction, RSV A2 listed as 0.8 nM

Looking up IgG form of 38F10 (antibody, V domains shown) VH: EVQLLESGGDVVQPGKSLRLSCTASGFSITDFGIHWVRQAPGKGLEWVALISYNEVNIHYGESVRGRFTISRDIAKNTVYLQMNGLRPEDTGVYFCARDVWEDSWLSLACFQEWGQGSLVVVSS VL: DIQLTQSPPTLSASVGDRVSMTCRASQSISNWLAWYQQKPGKAPKLLIQKASNLEDGVPSRFTASGFGTEFTLTISSLQPDDFATYYCQQYNSYSGLSFGGGTKVDIKR , I see its ED50, plaque reduction, RSV A2 listed as 0.553 nM
